Biological target: human FIIa (Homo sapiens, UniProt P00734)
pIC50: −log10 of the molar value.
Recorded Endpoint: pIC50

# value of pIC50, human FIIa (Homo sapiens, UniProt P00734), item Cc1ccc(NC(=O)c2ccc(Cl)s2)c(C(=O)Nc2ccc(-n3ccccc3=O)cc2)c1 = < 5.00

---

Biological target: human FXa (Homo sapiens)
Sequence (P00742 235-488 limits assumed): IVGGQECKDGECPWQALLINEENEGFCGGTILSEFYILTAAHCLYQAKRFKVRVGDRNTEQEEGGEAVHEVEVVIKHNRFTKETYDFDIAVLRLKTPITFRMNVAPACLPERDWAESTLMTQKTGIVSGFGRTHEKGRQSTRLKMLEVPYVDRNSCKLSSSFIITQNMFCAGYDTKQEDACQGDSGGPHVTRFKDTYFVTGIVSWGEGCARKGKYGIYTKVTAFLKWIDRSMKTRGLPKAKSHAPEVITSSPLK
Sequence (P00742 41-179 partner limits assumed): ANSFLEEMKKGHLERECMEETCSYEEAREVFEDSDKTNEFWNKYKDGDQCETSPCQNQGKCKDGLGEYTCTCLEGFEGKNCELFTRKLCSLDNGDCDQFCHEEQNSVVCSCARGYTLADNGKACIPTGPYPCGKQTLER
Exam item: assign y to entries whose IC50 is below 500 nM and n to entries at or above 500 nM. Note that a value of exactly 500 nM receives n.

The following compounds have reported results that may help.
- Smiles Entry: "Cc1cccc(C(=O)Nc2ccc(-n3ccccc3=O)cc2)c1NC(=O)c1ccc(F)cc1"
  Answer Label: "n"
- Smiles Entry: "O=C(Nc1ccc(Cl)cc1C(=O)Nc1ccc(N2CCOCC2=O)cc1)c1ccc(Cl)cc1"
  Answer Label: "n"
- Smiles Entry: "O=C(Nc1ccccc1C(=O)Nc1ccc(N2CCOCC2=O)cc1)c1ccc(Cl)s1"
  Answer Label: "y"
- Smiles Entry: "O=C(Nc1ccccc1C(=O)Nc1ccc(N2CCOCC2=O)cc1)c1ccc(Cl)cc1"
  Answer Label: "y"
- Smiles Entry: "O=C(Nc1ccc(Cl)cc1C(=O)Nc1ccc(N2CCOCC2=O)cc1)c1ccc(F)cc1"
  Answer Label: "n"
- Smiles Entry: "O=C(Nc1ccccc1C(=O)Nc1ccc(-n2ccccc2=O)cc1)c1ccc(Cl)cc1"
  Answer Label: "y"
- Smiles Entry: "Cc1cccc(C(=O)Nc2ccc(N3CCOCC3=O)cc2)c1NC(=O)c1ccc(F)cc1"
  Answer Label: "n"

// next entry
Q) Lab log: compare recorded IC50 with 500 nM; is it strictly lower for O=C(Nc1ccc(Cl)cc1C(=O)Nc1ccc(-n2ccccc2=O)cc1)c1ccc(Cl)cc1 ?
A) n
